Give measured abundance fitness for each item. Keep answers brief.
B1: Pituitary-specific positive transcription factor 1, residues 130 to 198; numbered along this chain, P28069 (parent)
chain: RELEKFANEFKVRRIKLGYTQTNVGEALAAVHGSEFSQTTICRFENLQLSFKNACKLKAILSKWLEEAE

# Variants of: B1
# assay.explanation: abundance fitness (aPCA) (normalised: wild type 0, dead -1); higher = more abundant; growth selection in yeast, the domain comes from the species named
# run.parameters: Homo sapiens
Just the number, please, no unit attached.

**Q:** What measured abundance fitness goes with `RELEKFANEFKVRRIKLGKTQTNVGEALAAVHGSEFSQTTICRFENLQLSFKNACKLKAILSKWLEEAE` ?
**A:** -0.674

**Q:** What measured abundance fitness goes with `RELEKFAFEFKVRRIKLGYTQTNVGEALAAVHGSEFSQTTICRFENLQLSFKNACKLKAILSKWLEEAE` ?
**A:** -0.262

**Q:** What measured abundance fitness goes with `RELEKFANEFKVRRIKLGYTQTNVGEALAAVHGSEQSQTTICRFENLQLSFKNACKLKAILSKWLEEAE` ?
**A:** -0.517

**Q:** What measured abundance fitness goes with `RELEKFANEFKVRRIKLGYTQTNVGEALAAVHGSEFSQTTICRFENLQLSFKNACKLKAHLSKWLEEAE` ?
**A:** -0.437

**Q:** What measured abundance fitness goes with `RELEKFANEFKVRRIKLGYTQTNVGEALAAVHGSEFSQTTICRNENLQLSFKNACKLKAILSKWLEEAE` ?
**A:** -1.11

**Q:** What measured abundance fitness goes with `RELEKFANEFKVERIKLGYTQTNVGEALAAVHGSEFSQTTICRFENLQLSFKNACKLKAILSKWLEEAE` ?
**A:** -0.976

**Q:** What measured abundance fitness goes with `RELEKFANEFKVRRIKLGYCQTNVGEALAAVHGSEFSQTTICRFENLQLSFKNACKLKAILSKWLEEAE` ?
**A:** -0.871

**Q:** What measured abundance fitness goes with `RELEKFANEFKVRRIKLGYTQTNVGEGLAAVHGSEFSQTTICRFENLQLSFKNACKLKAILSKWLEEAE` ?
**A:** -0.739

**Q:** What measured abundance fitness goes with `RELEKAANEFKVRRIKLGYTQTNVGEALAAVHGSEFSQTTICRFENLQLSFKNACKLKAILSKWLEEAE` ?
**A:** -0.666

**Q:** What measured abundance fitness goes with `RELEKFANAFKVRRIKLGYTQTNVGEALAAVHGSEFSQTTICRFENLQLSFKNACKLKAILSKWLEEAE` ?
**A:** -0.156

**Q:** What measured abundance fitness goes with `RELEKFANEFKVRRIKLGYTQTNVGEALAAVHGSEFSQTTICRFENLQLSFKRACKLKAILSKWLEEAE` ?
**A:** 0.206

**Q:** What measured abundance fitness goes with `RELEKFANEFKVRRIKLGYTQTNVGEALAACHGSEFSQTTICRFENLQLSFKNACKLKAILSKWLEEAE` ?
**A:** -0.258

**Q:** What measured abundance fitness goes with `RELEKFANEFKVRRIKLGYTQTNVGEALAAVHGSEFSQTTICRFENLQLSFKNACKLKAILSKRLEEAE` ?
**A:** -0.79

**Q:** What measured abundance fitness goes with `RELEKFANEFKVLRIKLGYTQTNVGEALAAVHGSEFSQTTICRFENLQLSFKNACKLKAILSKWLEEAE` ?
**A:** -0.913

**Q:** What measured abundance fitness goes with `RELEKFANEFKVRRIKLGYTQTNVGEALAAVHGLEFSQTTICRFENLQLSFKNACKLKAILSKWLEEAE` ?
**A:** -0.253

**Q:** What measured abundance fitness goes with `RELEKFANEFKVRRIKLGYTQTNVGEALAAVHGSEFSQTTICRFENWQLSFKNACKLKAILSKWLEEAE` ?
**A:** -0.789

**Q:** What measured abundance fitness goes with `RELEKFANEFKVRRIKLGYTQTNVGEALIAVHGSEFSQTTICRFENLQLSFKNACKLKAILSKWLEEAE` ?
**A:** -0.492

**Q:** What measured abundance fitness goes with `RELEKFANEFKVRRIKLGYTQTNSGEALAAVHGSEFSQTTICRFENLQLSFKNACKLKAILSKWLEEAE` ?
**A:** -0.681

**Q:** What measured abundance fitness goes with `RELEKFANEFKVRRIKLGYTQTNVGEALAAYHGSEFSQTTICRFENLQLSFKNACKLKAILSKWLEEAE` ?
**A:** -0.339

**Q:** What measured abundance fitness goes with `RELEKFANEFKVRRPKLGYTQTNVGEALAAVHGSEFSQTTICRFENLQLSFKNACKLKAILSKWLEEAE` ?
**A:** -1.03

**Q:** What measured abundance fitness goes with `RELEKFANEFKVRRIKLGYTQTNVGEALAAVHGSEFSQTTICRFENLQLSFKNACFLKAILSKWLEEAE` ?
**A:** -0.554

**Q:** What measured abundance fitness goes with `RELEKFANEFKVRRIKLGYTQTNVGEALAAVHHSEFSQTTICRFENLQLSFKNACKLKAILSKWLEEAE` ?
**A:** -0.536

**Q:** What measured abundance fitness goes with `RELEKFANEFKVRRIKLGYTQTNVQEALAAVHGSEFSQTTICRFENLQLSFKNACKLKAILSKWLEEAE` ?
**A:** -0.171

**Q:** What measured abundance fitness goes with `RELEKFANEFKVRRIKLGYTQTNVGEALAAVHGSETSQTTICRFENLQLSFKNACKLKAILSKWLEEAE` ?
**A:** -0.512

**Q:** What measured abundance fitness goes with `RELEKFANEFKVRRIKMGYTQTNVGEALAAVHGSEFSQTTICRFENLQLSFKNACKLKAILSKWLEEAE` ?
**A:** -0.453

**Q:** What measured abundance fitness goes with `RELEKFANEFKVRRIKLGYTQTYVGEALAAVHGSEFSQTTICRFENLQLSFKNACKLKAILSKWLEEAE` ?
**A:** 0.008

**Q:** What measured abundance fitness goes with `RELEKFANEFKVRRIKLGYTQTNVGEALAAVHGSEFSQTTIKRFENLQLSFKNACKLKAILSKWLEEAE` ?
**A:** 0.148

**Q:** What measured abundance fitness goes with `RELEKFANEFKVRRIKLGYTQTNVGEALAAVHGSEFSQTTICRFEPLQLSFKNACKLKAILSKWLEEAE` ?
**A:** -0.89

**Q:** What measured abundance fitness goes with `RELEKFANEFKVRTIKLGYTQTNVGEALAAVHGSEFSQTTICRFENLQLSFKNACKLKAILSKWLEEAE` ?
**A:** -0.878

**Q:** What measured abundance fitness goes with `RELEKFANEFKVRRIKLGYTQTNVGEALAAVHGSEFSQTTICRFENLQLSNKNACKLKAILSKWLEEAE` ?
**A:** -0.342

**Q:** What measured abundance fitness goes with `RELEKFANEFKVRRIKLGYTQTNVFEALAAVHGSEFSQTTICRFENLQLSFKNACKLKAILSKWLEEAE` ?
**A:** -0.285

**Q:** What measured abundance fitness goes with `RELEKFANEFKVRRIKLGYTQTNVGEALAAVHGSEFSQTTICRFENLQLSFKNAGKLKAILSKWLEEAE` ?
**A:** -0.395

**Q:** What measured abundance fitness goes with `RELEKFANEFKVRRIKLGYTQTNVGEALAAVHGSEFSQTFICRFENLQLSFKNACKLKAILSKWLEEAE` ?
**A:** -0.911

**Q:** What measured abundance fitness goes with `RELRKFANEFKVRRIKLGYTQTNVGEALAAVHGSEFSQTTICRFENLQLSFKNACKLKAILSKWLEEAE` ?
**A:** -0.229

**Q:** What measured abundance fitness goes with `RELEKFANEFKVRRIKLGYTQTNVGEALAAVHGSEFSQTTICRFENLQLSFKNACKLKAILSKWKEEAE` ?
**A:** -0.75

**Q:** What measured abundance fitness goes with `RELEKFANEFKVRRIKLWYTQTNVGEALAAVHGSEFSQTTICRFENLQLSFKNACKLKAILSKWLEEAE` ?
**A:** -0.83

**Q:** What measured abundance fitness goes with `RELEKFANEFKVRRIKLCYTQTNVGEALAAVHGSEFSQTTICRFENLQLSFKNACKLKAILSKWLEEAE` ?
**A:** -0.688

**Q:** What measured abundance fitness goes with `RELEKVANEFKVRRIKLGYTQTNVGEALAAVHGSEFSQTTICRFENLQLSFKNACKLKAILSKWLEEAE` ?
**A:** -0.941

**Q:** What measured abundance fitness goes with `RELEKFANEFKVRRIKLGYTQTNAGEALAAVHGSEFSQTTICRFENLQLSFKNACKLKAILSKWLEEAE` ?
**A:** -0.728

**Q:** What measured abundance fitness goes with `RELEKFANEFKVRRIKLVYTQTNVGEALAAVHGSEFSQTTICRFENLQLSFKNACKLKAILSKWLEEAE` ?
**A:** -0.912

**Q:** What measured abundance fitness goes with `RELEKFANEFKVRRIKLGYTQTNVGEALAAVHGSEFSQTTICRFENLQLSFKNACKLKAILSKKLEEAE` ?
**A:** -0.461

**Q:** What measured abundance fitness goes with `RELEKFANEFKVRRIKLGYTQTNVGEALAAVHGSEFSQTTICRFENLQLSDKNACKLKAILSKWLEEAE` ?
**A:** -0.001

**Q:** What measured abundance fitness goes with `RELEKFANEFKVRRIKLGYTQTNVGEALQAVHGSEFSQTTICRFENLQLSFKNACKLKAILSKWLEEAE` ?
**A:** -0.112

**Q:** What measured abundance fitness goes with `RELEKFANEFKVRRIKLGYTQTNVGEALAAVHGSEFSQTTICRFENLQLSFKNACKLKAILSKWDEEAE` ?
**A:** -0.85

**Q:** What measured abundance fitness goes with `RNLEKFANEFKVRRIKLGYTQTNVGEALAAVHGSEFSQTTICRFENLQLSFKNACKLKAILSKWLEEAE` ?
**A:** -0.518

**Q:** What measured abundance fitness goes with `RELEKFANEFKVRRIKLGYTQTNVGEALAAGHGSEFSQTTICRFENLQLSFKNACKLKAILSKWLEEAE` ?
**A:** -0.404
